The origin of these recorded values is patent US5317022A.

Catalogue of ED50 readings, one per entry.
Test system: rat
Test: analgetic effect, tail flick (rat)
Format: in vivo
Conditions: Rattus norvegicus; read-out: tail flick (rat) ED50
Structures can show the parent of a compound that is named as a salt.
Return type: number; implicit unit mg/kg.

Examples with answers:
INSERT INTO measurements (compound, assay_value) VALUES
  ('COc1ccc2c3c1O[C@H]1C(=NNC(N)=S)CC[C@@]4(O)[C@@H](C2)N(C)CC[C@]314 [Oxycodone-thiosemicarbazone.HCl, Oxycodone-thiosemicarbazone]', 4.5),
  ('COc1ccc2c3c1O[C@H]1C(=NNc4ccccc4)CC[C@H]4[C@@H](C2)N(C)CC[C@]314 [Dihydrocodeinone-phenylhydrazone]', 2.3),
  ('COc1ccc2c3c1O[C@H]1C(=NNC(N)=O)CC[C@H]4[C@@H](C2)N(C)CC[C@]314 [Dihydrocodeinone-semicarbazone.HCl, dihydrocodeinone-semicarbazone]', 0.35),
  ('COc1ccc2c3c1O[C@H]1C(=NO)CC[C@H]4[C@@H](C2)N(C)CC[C@]314 [Dihydrocodeinone-oxime, DIHYDROCODEINON-OXIME]', 3.7),
  ('COc1ccc2c3c1O[C@H]1C(=O)CC[C@H]4[C@@H](C2)N(C)CC[C@]314 [Dihydrocodeinone, reference compound]', 0.98),
  ('COc1ccc2c3c1O[C@H]1C(=NN)CC[C@@]4(O)[C@@H](C2)N(C)CC[C@]314 [Oxycodone hydrazone, 14-OH-DIHYDROCODEINONE-HYDRAZONE (TRANS)]', 0.65);

Can you look up ED50 on rat for COc1ccc2c3c1O[C@H]1C(=NNC(N)=S)CC[C@H]4[C@@H](C2)N(C)CC[C@]314 [Dihydrocodeinone thio-semicarbazone.HCl, Dihydrocodeinone thio-semicarbazone] ? 0.6
